This collection of values is drawn from PubChem BioAssay AID240.

System: Lymphoma 4 ip in BDF1 mice, median survival
Method Notes: NCI In Vivo Anticancer Drug Screen. Data for tumor model Lymphoma 4 (intraperitoneal) in B6D2F1 (BDF1) mice
Condition Info: endpoint: median survival time; dose: 4.0 mg/kg/injection; schedule: Q01DX010 (ip); vehicle: saline; higher = longer survival
Toxic doses and inconclusive results are not listed.
Record form. Attribute: T/C. Fill in for each entry.

CN1CC[C@]23c4c5ccc(O)c4O[C@H]2C(=O)CC[C@H]3[C@H]1C5 yielded T/C of 96 % of control

COCCCNP(=S)(N1CC1)N1CC1 yielded T/C of 116 % of control

Nc1nc(F)nc2c1ncn2C1OC(CO)C(O)C1O (centres undefined) yielded T/C of 96 % of control

CCn1cnc2c(=S)nc[nH]c21 yielded T/C of 96 % of control

* * *

System: Lymphoma 4 ip in BDF1 mice, median survival
Method Notes: NCI In Vivo Anticancer Drug Screen. Data for tumor model Lymphoma 4 (intraperitoneal) in B6D2F1 (BDF1) mice
Condition Info: endpoint: median survival time; dose: 25.0 mg/kg/injection; schedule: Q01DX010 (ip); vehicle: saline; higher = longer survival
Protocol: The antitumor activity of compounds was measured in mice bearing transplantable tumors. Survival or tumor size were measured and the results are expressed as the measurement made in the treated group (T) divided by the measurement made in the vehicle treated control group (C). The tumor model used in this assay is Lymphoma 4 (intraperitoneal) in B6D2F1 (BDF1) mice
Toxic doses and inconclusive results are not listed.
Quantity Kind: T/C

CC(=O)Nc1ccc2nc3ccc(NC(C)=O)cc3[n+](-c3ccccc3)c2c1 yielded T/C of 111 % of control

C#CCN(C)Cc1ccccc1 yielded T/C of 93 % of control

COc1cc(-c2ccc(Nc3ccccc3C(=O)O)c(OC)c2)ccc1Nc1ccccc1C(=O)O yielded T/C of 115 % of control

CN(C)/N=N/c1nc[nH]c1C(N)=O yielded T/C of 114 % of control

O=[n+]1c2c(n([O-])c3ccccc31)-c1cccc3cccc-2c13 yielded T/C of 100 % of control

CCN(CC)CCNc1ccc(C)c2sc3ccccc3c(=O)c12 yielded T/C of 103 % of control

OC(CBr)C(O)C(O)C(O)CBr (configuration not stated) yielded T/C of 115 % of control
